This section presents compounds with their documented log10 IC50 values.
experimentalTarget: SETD2(1434-1711) (Homo sapiens, UniProt Q9BYW2)
Construct: SETD2 (1434-1711) Assay; catalogue N/A
Sequence (Q9BYW2 1434-1711): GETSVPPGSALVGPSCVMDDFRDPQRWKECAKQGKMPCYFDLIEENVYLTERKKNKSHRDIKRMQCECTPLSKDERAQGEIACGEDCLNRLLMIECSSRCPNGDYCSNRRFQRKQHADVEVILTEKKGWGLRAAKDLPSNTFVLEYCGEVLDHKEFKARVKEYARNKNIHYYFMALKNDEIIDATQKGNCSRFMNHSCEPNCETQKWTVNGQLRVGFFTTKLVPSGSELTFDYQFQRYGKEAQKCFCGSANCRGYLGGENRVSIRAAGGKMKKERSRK
measurementProtocol: SETD2 (1434-1711) assay
Format: biochemical
cond: read-out: SETD2 (1434-1711)
Hey, these are logged values: log10 of IC50, nM being the unit before logging.

Sample answers from the record:
| compound | experimentalTarget | log10 IC50 |
| --- | --- | --- |
| CCOC(=O)C(CC1CCC1)NC(=O)c1cc2cccc(C)c2[nH]1 (stereo not drawn) [compound 630] | SETD2(1434-1711) (Homo sapiens, UniProt Q9BYW2) | 4.16 |
| Cc1ccc(F)c2cc(C(=O)Nc3cccc(N4C5CCC4COC5)c3)[nH]c12 [compound 291] | SETD2(1434-1711) (Homo sapiens, UniProt Q9BYW2) | 2.48 |
| Cc1ccc(F)c2cc(C(=O)Nc3cccc(N(C)C4CCN(C)C4)c3)[nH]c12 (stereo not drawn) [compound 342] | SETD2(1434-1711) (Homo sapiens, UniProt Q9BYW2) | 2.00 |

stdin: Give SETD2(1434-1711) (Homo sapiens, UniProt Q9BYW2) log10 IC50 for Cc1ccc(F)c2cc(C(=O)Nc3cc(F)cc(N4CCC(N5CCN(CC(N)=O)CC5)C4)c3)[nH]c12 (stereo not drawn) [compound 6]
stdout: 0.78

stdin: Give SETD2(1434-1711) (Homo sapiens, UniProt Q9BYW2) log10 IC50 for CNC(=O)C(NC(=O)c1cc2c(F)ccc(C)c2[nH]1)c1ccccn1 (stereo not drawn) [compound 585]
stdout: 4.53

stdin: Give SETD2(1434-1711) (Homo sapiens, UniProt Q9BYW2) log10 IC50 for Cc1ccc(F)c2cc(C(=O)NC3CCCC(N4CCCN(C)C(=O)C4)C3)[nH]c12 (stereo not drawn) [compound 370]
stdout: 3.83

stdin: Give SETD2(1434-1711) (Homo sapiens, UniProt Q9BYW2) log10 IC50 for Cc1ccc(F)c2cc(C(=O)NC3CCCC(N4CCN5C(=O)COCC5C4)C3)[nH]c12 (stereo not drawn) [compound 1141]
stdout: 2.60

stdin: Give SETD2(1434-1711) (Homo sapiens, UniProt Q9BYW2) log10 IC50 for Cc1cccnc1C(NC(=O)c1cc2cccc(CO)c2[nH]1)C1CC1 (stereo not drawn) [compound 574]
stdout: 4.24

stdin: Give SETD2(1434-1711) (Homo sapiens, UniProt Q9BYW2) log10 IC50 for Cc1ccc(F)c2cc(C(=O)Nc3cccc(N4CCOCC4CO)c3)[nH]c12 (stereo not drawn) [compound 265]
stdout: 2.30

stdin: Give SETD2(1434-1711) (Homo sapiens, UniProt Q9BYW2) log10 IC50 for CC(=O)N1[C@H](C)CN(c2cccc(NC(=O)c3cc4c(F)ccc(C)c4[nH]3)c2)C[C@H]1C [compound 214]
stdout: 2.00

stdin: Give SETD2(1434-1711) (Homo sapiens, UniProt Q9BYW2) log10 IC50 for CC(=O)N1CCN(C2CCN(c3cc(F)cc(NC(=O)c4cc5c(F)ccc(C)c5[nH]4)c3)C2)CC1 (stereo not drawn) [compound 9]
stdout: 0.90

stdin: Give SETD2(1434-1711) (Homo sapiens, UniProt Q9BYW2) log10 IC50 for Cc1ccc(F)c2cc(C(=O)Nc3cc(N4CCN(C)CC4)c4ncccc4c3)[nH]c12 [compound 350]
stdout: 1.90
